solubility overview
Test: Aqueous solubility (Cerep)
Format: physicochemical
Conditions: assay maximum 200 µM
Express your answer in µM, writing the number without its unit.

{"molecule": "COCCN(C)C(=O)c1cc(C(=O)N(C)CCOC)cc(C(=O)N(C)CCOC)c1", "result.units": "µM", "solubility": 200}

# next molecule below
Which solubility reading was recorded for the molecule O=C(NCCO)c1cc(C(=O)NCCO)cc(C(=O)NCCO)c1 [LM22A-4, reference compound] ? 180

---

Test: Brain:plasma partitioning (LC-MS/MS)
Assay type: in vivo, mouse
Conditions: male, C57BL/6, mouse, brain, ip; mice, 50 mg/kg i.p., 3 h; read-out: brain levels
concentration at 3 h overview
Give me the value, and tack the unit on after it.

{"compound": "COCCN(C)C(=O)c1cc(C(=O)N(C)CCOC)cc(C(=O)N(C)CCOC)c1", "concentration at 3 h": "36.1 nM"}

Which concentration at 3 h reading was recorded for the compound O=C(NCCO)c1cc(C(=O)NCCO)cc(C(=O)NCCO)c1 [LM22A-4, reference compound] ? 53.2 nM
